- System: VEGF-121 (Homo sapiens), P15692-9
- Sequence: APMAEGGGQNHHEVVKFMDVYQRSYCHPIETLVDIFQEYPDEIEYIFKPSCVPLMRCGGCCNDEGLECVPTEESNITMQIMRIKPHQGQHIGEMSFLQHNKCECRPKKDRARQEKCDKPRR
- EXPERIMENTAL DETAILS: filter
- CONDITION SUMMARY: NapdU at P; 2'-OMe 4
pKd: −log10 of the molar value.
METRIC NAME: pKd

{"CHAIN": "CCGTTCAAGTGCTTGTAGGATTTAAATGG [4867-31_154]", "VAL": 8.23}

====

- TARGET SYSTEM: PDGF-BB (platelet-derived growth factor BB) (Homo sapiens) (UniProt P01127)
- Sequence (P01127 82-190): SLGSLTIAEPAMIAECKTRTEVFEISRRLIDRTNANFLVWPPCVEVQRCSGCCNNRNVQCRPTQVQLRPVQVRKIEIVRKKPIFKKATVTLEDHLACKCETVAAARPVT
- EXPERIMENTAL DETAILS: filter
- CONDITION SUMMARY: NapdU at P; 2'-OMe 1,6,16
pKd: −log10 of the molar value.
METRIC NAME: pKd

{"CHAIN": "CGACAGCATGTATGCACATCT [5169-4_109]", "METRIC NAME": "pKd", "VAL": 10.96}

====

- TARGET SYSTEM: PDGF-BB (platelet-derived growth factor BB) (Homo sapiens)
- EXPERIMENTAL DETAILS: filter
- CONDITION SUMMARY: NapdU at P; SB18T, 37 C
pKd: −log10 of the molar value.

{"CHAIN": "CCTCGACAGCATGTATGCACATCTAGAGGCTACCCAGTGAATGAGGA [5169-4_4]", "pKd": 10.57}

====

- System: VEGF-121 (Homo sapiens), P15692-9
- Sequence: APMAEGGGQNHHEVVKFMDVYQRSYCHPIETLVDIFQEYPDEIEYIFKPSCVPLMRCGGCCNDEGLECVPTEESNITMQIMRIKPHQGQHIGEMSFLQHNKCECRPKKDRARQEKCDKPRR
- EXPERIMENTAL DETAILS: filter
- CONDITION SUMMARY: P=Nap-dU; 2'-OMe G11

{"CHAIN": "AGCCGTTCAAGTGCTTGTAGGATTTAAATGGA [4867-31_75]", "Kd": "0.15 nM"}

====

- TARGET SYSTEM: PDGF-BB (platelet-derived growth factor BB) (Homo sapiens) (UniProt P01127)
- EXPERIMENTAL DETAILS: filter
- CONDITION SUMMARY: NapdU at P; 2'-OMe 1

{"CHAIN": "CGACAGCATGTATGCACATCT [5169-4_33]", "Kd / nM": 0.027}

====

- TARGET SYSTEM: PDGF-BB (platelet-derived growth factor BB) (Homo sapiens)
- EXPERIMENTAL DETAILS: filter
- CONDITION SUMMARY: Bn-dU; 2'-OMe Bn-U16; Heg5; 2'-OMe A3, A11, A21, G24

{"CHAIN": "TTACGTTACACGCGTTTATAGCG [4149-8_309]", "Kd": "> 10 nM"}

====

- TARGET SYSTEM: PDGF-BB (platelet-derived growth factor BB) (Homo sapiens)
- EXPERIMENTAL DETAILS: filter
- CONDITION SUMMARY: C3 spacer at 4; NapdU at 9,11,13,19,21; C3 spacer walk
pKd: −log10 of the molar value.

{"CHAIN": "CGAAGCATGTATGCACATCT [5169-4_62]", "pKd": 7.38}

Hello, the source for this data is patent US20160177307, in case you need it.
